In this section we review reported TGI values for a set of molecules.
System: MALME-3M melanoma
Assay: NCI tumour cell line growth inhibition, 48 h

molecule	TGI
CC1(C)N=C(N)N=C(N)N1c1ccc(CCCC(=O)Nc2ccc(S(=O)(=O)F)cc2)cc1	> 100 µM
Cc1cc(Cl)ccc1N=C1NC(=O)C(CC(=O)Nc2cccc(Cl)c2)S1 (stereo not drawn)	> 100 µM
COc1cccc(NC(=O)CC(=O)NN)c1	> 100 µM

----------
Test system: HOP-62 NSCLC
Assay: NCI tumour cell line growth inhibition, 48 h
In this section we review reported TGI values for a set of compounds.
measure: TGI

compound	measure	meas-value
Nc1cccc(-c2cc(=O)c3cc4c(cc3[nH]2)OCO4)c1	TGI	29.2 µM
COCN1C(=O)[C@@H]2CCCN2C(=O)c2ccc(N)cc21	TGI	> 100 µM
O=c1cc(-c2ccccc2)oc2ccc(Cl)cc12	TGI	> 85.8 µM
OC12CCC3(OC4CCCCO4)c4ccccc4C3C1c1ccccc12 (centres undefined)	TGI	> 100 µM
COc1cc(/C=C(\C)[N+](=O)[O-])cc(OC)c1	TGI	33.7 µM
CC(=O)O[C@H]1[C@@H](N2CCOCC2)C[C@H]2[C@@H]3CC=C4C[C@@H](N5CCCC5)CC[C@]4(C)[C@H]3CC[C@@]21C	TGI	> 100 µM
O=C(/C=C/c1ccc(O)c(O)c1)N1CCN(c2ccc(Cl)cc2)CC1	TGI	35.1 µM
CO[C@@]12C[C@H](CNC(=O)c3ccc[nH]3)O[C@@H]1NC(=O)N2	TGI	> 100 µM
O=C1/C(=C/c2ccc(Cl)cc2)CCC1CNc1ccc(Cl)cc1 (centres undefined)	TGI	56.1 µM
Clc1ccc(-c2cn3c(nc4ccccc43)c(-c3ccccc3)n2)cc1	TGI	24.6 µM
NCCCN(CCCCN(CCCN)CCCc1ccccc1)CCCc1ccccc1	TGI	25.4 µM
CCOC(=O)N1c2ccccc2C(C)=CC(C)C1C (centres undefined)	TGI	> 100 µM
O=CN1CCN(c2ccc3ccc(=O)[nH]c3n2)CC1	TGI	> 100 µM
Fc1ccccc1CN1COc2c(cc(Cl)c3cccnc23)C1	TGI	16.6 µM
NC1=Nc2cc(C(F)(F)F)ccc2Sc2nc3ccccc3n21	TGI	> 100 µM
N#C/C(=C\c1ccc(O)cc1)C(N)=O	TGI	> 100 µM
[O]=[Sn]([CH]1CCCCC1)[CH]1CCCCC1	TGI	1.54 µM
CC1=NN(c2nc(N)nc(CO)n2)C(C)(C)C1	TGI	> 100 µM
Cc1cc(C)c2nc3c(c(C(O)C4CCCCN4)c2c1)CC/C3=C\c1ccc(Cl)cc1 (centres undefined)	TGI	> 100 µM
COC(=O)c1ccccc1C1CN=NC12Cc1ccc(C)cc1C2=O (centres undefined)	TGI	> 100 µM
O=c1c(-c2nc3ccccc3c3ccccc3c2=O)nc2ccccc2c2ccccc12	TGI	> 100 µM
CCn1cc(C(=O)O)c(=O)c2cc(F)c(N3CCN(S(=O)(=O)c4ccc(Cl)cc4Cl)CC3)cc21	TGI	9.95 µM
CCOC(=O)C(C)c1nc2cc(F)c(F)cc2[nH]c1=O (centres undefined)	TGI	> 100 µM
Nc1nc(SCc2ccccc2Cl)c2ncn(C3OC(CO)C(O)C3O)c2n1 (centres undefined)	TGI	> 100 µM
CCSC[C@@H]1C[C@](O)(c2ccccc2)[C@@H](c2ccccc2)O1	TGI	> 100 µM
Cc1cc(Cl)ccc1N=C1NC(=O)C(CC(=O)Nc2cccc(Cl)c2)S1 (centres undefined)	TGI	> 100 µM
CCOc1ccc(C2=NN(CC)C(=O)C(C3C(=O)N(c4ccccc4)N=C3C)C2)cc1 (centres undefined)	TGI	> 100 µM
CCc1ccc2c(c1)C(=O)c1c-2n(CCCN)c(=O)c2cc(OC)c(OC)cc12	TGI	3.29 µM
COc1cccc(C2CC(=O)Nc3c2c(C)nn3-c2nc3ccccc3[nH]2)c1OC (centres undefined)	TGI	7.78 µM

Values compiled from PubChem BioAssay (NCI).
